Biological target: Hsp60β (Sulfolobus acidocaldarius, UniProt Q9V2T4)
Sequence (Q9V2T4 whole entry): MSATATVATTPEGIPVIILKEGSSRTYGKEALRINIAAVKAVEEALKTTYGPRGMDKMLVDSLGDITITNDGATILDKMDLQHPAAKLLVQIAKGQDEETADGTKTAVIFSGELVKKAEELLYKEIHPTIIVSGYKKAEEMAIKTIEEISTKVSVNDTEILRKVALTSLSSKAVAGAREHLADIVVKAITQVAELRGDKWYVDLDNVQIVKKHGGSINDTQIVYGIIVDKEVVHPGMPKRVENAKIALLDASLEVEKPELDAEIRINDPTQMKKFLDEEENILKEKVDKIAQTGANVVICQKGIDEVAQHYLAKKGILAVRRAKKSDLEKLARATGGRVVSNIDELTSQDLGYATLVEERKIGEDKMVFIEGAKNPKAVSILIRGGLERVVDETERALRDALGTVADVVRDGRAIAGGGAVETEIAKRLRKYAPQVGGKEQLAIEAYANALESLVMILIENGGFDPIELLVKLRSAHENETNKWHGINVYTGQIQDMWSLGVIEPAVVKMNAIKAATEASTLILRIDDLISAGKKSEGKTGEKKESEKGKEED
Experiment: FRET titration, tryptophan donor to MANT acceptor
Format: binding
attribute_measured: pKd
Entry type: numeric. Quantity: pKd, the -log10 of concentration in molar units.

The value of pKd measured for the compound CNc1ccccc1C(=O)O[C@H]1[C@@H](O)[C@H](n2cnc3c(N)ncnc32)O[C@@H]1CO[P@@](=O)(O)O[P@](=O)(O)OP(=O)(O)O [MANT-ATP] turned out to be 4.11
